Target: Peroxisome proliferator-activated receptor gamma (Homo sapiens)
Assay: qHTS assay to identify small molecule antagonists of the peroxisome proliferator-activated receptor gamma (PPARg) signaling pathway (AID 743191); also: nearly all actives have a fitted effect of over 30% in size
Details: HEK293H PPARg-UAS-bla, beta-lactamase ratio, antagonist, 17 h; series mostly up to 62.6 µM
Records with an inconclusive call do not appear. Active and inactive are the calls of the source. Calls follow the shape of the full dose curve.
assayEndpoint: ratio activity, negative = inhibition

In [3]: df
Out[3]:
                                   compound                                measuredon                          assayendpoint  measuredvalue
0                            COc1cccc(OC)c1  Peroxisome proliferator-activated receptor gamma (Homo sapiens)  ratio activity, negative = inhibition       inactive
1   CC(C)CCCC(C)NCCC(C)C (stereo not drawn)  Peroxisome proliferator-activated receptor gamma (Homo sapiens)  ratio activity, negative = inhibition       inactive
2                    COC(=O)CCCCCCCCC(=O)OC  Peroxisome proliferator-activated receptor gamma (Homo sapiens)  ratio activity, negative = inhibition       inactive
3  Oc1cc(O)c2c(c1)O[C@H](c1ccc(O)c(O)c1)[C@H](O)C2  Peroxisome proliferator-activated receptor gamma (Homo sapiens)  ratio activity, negative = inhibition       inactive
4  COC(=O)C1=C(C)NC(C)=C(C(=O)OCC(C)=O)C1c1ccccc1[N+](=O)[O-] (stereo not drawn)  Peroxisome proliferator-activated receptor gamma (Homo sapiens)  ratio activity, negative = inhibition       inactive

Turning to the following compound.
**Query** Which ratio activity, negative = inhibition is listed for `O=C1CC2(CCCC2)CC(=O)N1` ?
**Result** inactive

* * *

Target: Peroxisome proliferator-activated receptor gamma (Homo sapiens)
Experiment: qHTS assay to identify small molecule antagonists of the peroxisome proliferator-activated receptor gamma (PPARg) signaling pathway (AID 743191); also: nearly all actives have a fitted effect of over 30% in size
Conditions: HEK293H PPARg-UAS-bla, beta-lactamase ratio, antagonist, 17 h; series mostly up to 62.6 µM
Inconclusive results are not listed. The source made the active and inactive calls. Calls follow the shape of the full dose curve.
assayEndpoint: ratio activity, negative = inhibition

A selection of reference data follows.
>>> df
                                   molecule                                measuredon  measuredvalue
0  CCCCOCC(C)OCC(C)O (configuration not stated)  Peroxisome proliferator-activated receptor gamma (Homo sapiens)       inactive
1  CC(C)c1ccc2oc3nc(N)c(C(=O)O)cc3c(=O)c2c1  Peroxisome proliferator-activated receptor gamma (Homo sapiens)       inactive
2  CCC(C(=O)NC(N)=O)c1ccccc1 (configuration not stated)  Peroxisome proliferator-activated receptor gamma (Homo sapiens)       inactive
3                       CC(C)CCOC(=O)CC(C)C  Peroxisome proliferator-activated receptor gamma (Homo sapiens)       inactive

**Query** Which ratio activity, negative = inhibition is listed for `CC(C)(C)CC(C)(C)N` ?
**Result** inactive

**Query** Which ratio activity, negative = inhibition is listed for `Cc1onc(-c2ccccc2)c1-c1ccc(S(N)(=O)=O)cc1` ?
**Result** inactive

**Query** Which ratio activity, negative = inhibition is listed for `CC(C)(O)Cc1ccccc1` ?
**Result** inactive

* * *

Experiment: qHTS assay to test for compound auto fluorescence at 460 nm (blue) in HepG2 cell free culture (AID 720685)
Settings: Cell-free culture medium, blue autofluorescence 405/460 nm; series mostly up to 91.3 µM
Description: U.S. Tox21 Program National Center for Advancing Translational Sciences [NCATS] NIH Chemical Genomics Center [NCGC] U.S. Environmental Protection Agency [EPA] National Institutes of Environmental Health Sciences [NIEHS] National Toxicology Program [NTP] U.S. Food and Drug Administration [FDA] Tox21 Assay Overview: Compound auto fluorescence often interferes with screening of the compound library against various biological targets and signaling pathways. […] This assay includes the blue fluorescence data. […]
The source made the active and inactive calls. Calls come from the whole dose curve; as a rule, active = well fitted curve in the direction sought with a large enough effect in the repeat runs; inconclusive = weak or mixed curves; inactive = flat fitted curve, though single readings scatter.
assayEndpoint: fluorescence, % of fluorescent control

In [3]: df
Out[3]:
                                   compound                           assayendpoint  measuredvalue
0                         C=C[Si](OC)(OC)OC  fluorescence, % of fluorescent control       inactive
1                     CC(C)COC(=O)c1ccccc1O  fluorescence, % of fluorescent control       inactive
2  CC12CCC(CC1=O)C2(C)C (stereo unspecified)  fluorescence, % of fluorescent control       inactive
3                         CC(C)(O)Cc1ccccc1  fluorescence, % of fluorescent control       inactive
4    CCCCOCC(C)OCC(C)O (stereo unspecified)  fluorescence, % of fluorescent control       inactive

**Query** Which fluorescence, % of fluorescent control is listed for `CCC(=O)Nc1cccc(N)c1` ?
**Result** inactive

**Query** Which fluorescence, % of fluorescent control is listed for NC(CS)C(=O)O (stereo unspecified) ?
**Result** inactive

**Query** Which fluorescence, % of fluorescent control is listed for `CCCCNc1ccccc1` ?
**Result** inactive

**Query** Which fluorescence, % of fluorescent control is listed for `C=C(C)C(=O)NCCCN(C)C` ?
**Result** inactive

**Query** Which fluorescence, % of fluorescent control is listed for `CO[Si](CCCNCCC[Si](OC)(OC)OC)(OC)OC` ?
**Result** inactive

Ref: PubChem BioAssay (Tox21)
